Hello, the source for this data is patent US20230357364A1, in case you need it.

Biological target: SARS-CoV-2 RBD (RBD-2) (SARS-CoV-2)
Assay: flow, HeLa-ACE2, mAb:RBD=2:1
Label condition met when % inhibition of RBD binding to hACE2 is at or above 50%; otherwise label condition not met.

Entry L12.cP08A09 (antibody, V domains shown, human IgG1) VH: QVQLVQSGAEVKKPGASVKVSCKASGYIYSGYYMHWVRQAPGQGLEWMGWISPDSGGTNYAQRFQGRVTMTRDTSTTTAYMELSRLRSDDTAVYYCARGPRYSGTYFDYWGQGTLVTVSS VL: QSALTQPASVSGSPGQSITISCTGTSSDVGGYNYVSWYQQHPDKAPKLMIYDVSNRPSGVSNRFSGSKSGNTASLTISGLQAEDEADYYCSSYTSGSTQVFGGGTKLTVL : is its % inhibition of RBD binding to hACE2 no less than 50%?
condition not met

Entry L12.bP11A11 (antibody, V domains shown, human IgG1) VH: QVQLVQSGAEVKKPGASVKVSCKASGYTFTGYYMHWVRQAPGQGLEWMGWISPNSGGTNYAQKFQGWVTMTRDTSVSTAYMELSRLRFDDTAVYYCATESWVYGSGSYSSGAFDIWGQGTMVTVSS VL: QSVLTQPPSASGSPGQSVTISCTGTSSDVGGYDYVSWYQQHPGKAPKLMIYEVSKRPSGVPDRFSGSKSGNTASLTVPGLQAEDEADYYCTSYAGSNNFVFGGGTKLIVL : is its % inhibition of RBD binding to hACE2 no less than 50%?
condition not met

Entry L12.cP09C07 (antibody, V domains shown, human IgG1) VH: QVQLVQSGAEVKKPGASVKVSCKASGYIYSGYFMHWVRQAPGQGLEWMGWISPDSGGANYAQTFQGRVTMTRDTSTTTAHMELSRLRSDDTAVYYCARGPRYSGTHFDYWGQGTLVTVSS VL: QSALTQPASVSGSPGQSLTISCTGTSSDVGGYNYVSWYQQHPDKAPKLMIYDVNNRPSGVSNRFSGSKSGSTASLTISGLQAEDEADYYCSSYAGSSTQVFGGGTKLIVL : is its % inhibition of RBD binding to hACE2 no less than 50%?
condition met

Entry L12.cP09D03 (antibody, V domains shown, human IgG1) VH: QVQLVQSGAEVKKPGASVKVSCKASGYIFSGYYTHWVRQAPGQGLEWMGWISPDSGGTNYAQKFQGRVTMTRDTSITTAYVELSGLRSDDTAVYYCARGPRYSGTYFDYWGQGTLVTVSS VL: QSVLTQPASVSGSPGQSITISCTGTSSDVGGYNYVSWYQQHPGKVPKLMIYDVSNRPSGVSNRFSGSKSGNTASLTISGLQAEDEADYYCSSYTSSSAQLFGGGTKLTVL : is its % inhibition of RBD binding to hACE2 no less than 50%?
condition not met

Entry L12.cP07E10 (antibody, V domains shown, human IgG1) VH: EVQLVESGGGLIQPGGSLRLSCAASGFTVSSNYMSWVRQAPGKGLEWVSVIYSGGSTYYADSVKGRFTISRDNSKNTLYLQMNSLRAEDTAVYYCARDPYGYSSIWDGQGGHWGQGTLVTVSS VL: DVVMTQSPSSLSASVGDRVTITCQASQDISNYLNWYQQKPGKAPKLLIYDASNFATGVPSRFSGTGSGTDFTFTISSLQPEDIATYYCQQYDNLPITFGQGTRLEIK : is its % inhibition of RBD binding to hACE2 no less than 50%?
condition met
